test: inhibitors of hydroxyurea-induced Chk1 phosphorylation, primary screen, imaging, HeLa, phospho-Chk1 nuclear intensity (AID 1187); settings: hydroxyurea-induced phospho-Chk1 immunofluorescence imaging, higher = more signal; note: test concentration not given here
Kindly supply the reported z-score values for the records listed here.
Keep the answer to the number alone.

Ask | Recorded z-score for COc1cc2c(cc1OC)CN(C(=O)[C@@H]1[C@H]3C(=O)O[C@H](c4ccccc4)[C@H](c4ccccc4)N3[C@H](c3ccc(OCCO)cc3)[C@@]13C(=O)Nc1ccccc13)CC2 , please?
Reply | -0.256

Ask | Another: O=C1C2C=CC(C(O)c3ccccc3)N(Nc3ccccc3F)C2C(=O)N1c1ccccc1 (stereo not given)
Reply | 0.0511

Ask | Another: CC[C@H]1C2=C3C(CC[C@H]4C(OCc5ccc(F)cc5C(F)(F)F)OC[C@](C)([C@@H]34)N(C(=O)OC(C)(C)C)C2)C(COC)C1COC (stereo not given in full)
Reply | 0.217

Ask | Another: COC(=O)[C@H](Cc1ccccc1)N1CC(/C=C/C2CC2)=C[C@H]1[C@H](O)Cc1ccccc1
Reply | -0.749

Ask | Another: COC(=O)[C@@]1(Cc2ccc(F)cc2)[C@H]2c3cc(C(=O)N4CCCC4)n(CCc4ccc(O)c(O)c4)c3C[C@H]2CN1C(=O)c1ccccc1
Reply | 0.303

Ask | Another: Cc1cc(C)cc(N2C(=O)CSC2c2cccc([N+](=O)[O-])c2)c1 (stereo not given)
Reply | -0.335

Ask | Another: COCCOC(=O)N1C(=O)[C@@]2(c3cc(C#Cc4ccc(OC)cc4)ccc31)[C@H](C(=O)Nc1nc3ccccc3s1)[C@H]1C(=O)O[C@H](c3ccccc3)[C@H](c3ccccc3)N1[C@@H]2c1ccc(O)cc1
Reply | -0.999

Ask | Another: C=C(CCCC)/C(=C/C[C@@H](OC(=O)c1ccncc1)c1ccccc1OCCO)c1cnc2ccccc2c1
Reply | -0.0646

Ask | Another: [N-]=[N+]=Nc1ccccc1[C@@H]1OC(c2ccc(OCCCO)cc2)=N[C@]1(Cc1ccccc1)C(=O)NCC(O)CO (stereo not given in full)
Reply | -0.228

Ask | Another: CCCCCCCCCCC(O)C1C=CC2C(=O)N(C)C(=O)C2N1NC(=O)OC(C)(C)C (stereo not given)
Reply | 1.4

Ask | Another: COc1ccc(-c2cc3c(c(CCc4ccccc4)n2)[Si](C(C)C)(C(C)C)OC3)cn1
Reply | 0.236

Ask | Another: CCOC(=O)C[C@H]1[C@H](OC(=O)c2ccc(C(=O)c3ccccc3)cc2)[C@@H](NC(=O)Cc2ccc(OC)cc2)c2cc(OCCCO)ccc2N1C(=O)c1ccccc1
Reply | 0.343

Ask | Another: COC(=O)C1=CC(CCCO)=CC(C2CC2)N(C)C=C1C(=O)OC (stereo not given)
Reply | -1.04

Ask | Another: C=CCC(OC(C)=O)[C@@H]1[C@@H](N(Cc2ccc(-c3cccc(C(F)(F)F)c3)o2)C(=O)c2ccc(-c3ccccc3)cc2)c2cc(OCCCO)ccc2N1C(=O)c1ccc2ccccc2n1 (stereo not given in full)
Reply | 0.615

Ask | Another: NCCCCCNC(=O)[C@@H]1C[C@@H]2C(=O)NCC(=O)N2[C@@H]1c1cccc(OCCO)c1
Reply | 0.503

* * *

biological target: Follistatin (Homo sapiens) (UniProt P19883); test: follistatin binders on small-molecule microarrays, primary screen, biochemical, small-molecule microarray, 635/667 nm fluorescence (AID 1132); conditions: FST binding, 635 nm fluorescence, higher = more signal
Sequence (P19883 whole entry, looked up): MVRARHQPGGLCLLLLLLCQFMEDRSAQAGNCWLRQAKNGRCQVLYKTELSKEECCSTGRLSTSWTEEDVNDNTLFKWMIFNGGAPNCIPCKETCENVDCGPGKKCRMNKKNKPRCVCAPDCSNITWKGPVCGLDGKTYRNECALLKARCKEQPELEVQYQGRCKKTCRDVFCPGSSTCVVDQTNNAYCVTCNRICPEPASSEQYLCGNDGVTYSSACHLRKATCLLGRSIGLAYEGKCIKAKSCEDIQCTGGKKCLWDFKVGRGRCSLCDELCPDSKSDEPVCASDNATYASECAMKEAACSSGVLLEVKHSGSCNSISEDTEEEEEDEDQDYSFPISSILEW
assay endpoint: composite z-score
Keep the answer to the number alone.

Ask | Recorded composite z-score for COCCCNC(=O)[C@]1(CCS(=O)(=O)c2ccccc2)N=C(c2ccc(OCCCO)cc2)O[C@@H]1c1ccccc1N=[N+]=[N-] , please?
Reply | 0.794

Ask | Another: COC(=O)[C@H](Cc1ccccc1)N1CC(/C=C/C2CC2)=C[C@H]1[C@H](O)Cc1ccccc1
Reply | 0.582

Ask | Another: CC(=O)NCCCC[C@@H]1NC(=O)[C@H]2C[C@@H](C(=O)NCCCC[N+](C)(C)C)[C@@H](c3cccc(OCCO)c3)N2C1=O
Reply | 1.47

Ask | Another: C=CCOC(=O)[C@H]1[C@@H]2C(=O)O[C@@H](c3ccccc3)[C@@H](c3ccccc3)N2[C@@H](c2ccc(OCCOC(=O)[C@H]3C[C@H]4C(=O)N[C@@H](CCCCNC(C)=O)C(=O)N4[C@H]3c3ccc(O)cc3)cc2)[C@]12C(=O)Nc1ccccc12
Reply | 1.4

Ask | Another: CCCCC=C[C@@H](NC(=O)c1ccc(-c2ccccc2)cc1)c1ccccc1
Reply | -0.107

Ask | Another: COC(=O)[C@@]1(Cc2ccc(OC)cc2)[C@H]2c3cc(C(=O)N4CCCC4)n(Cc4cccc5ccccc45)c3C[C@H]2CN1C(=O)c1ccccc1
Reply | 0.36
